- tested-on: T1, human CTLA4 (human)
- T1 construct: also called hCTLA4; hCTLA4-His-BAP
- protocol: SPR Biacore T200, 37C, antibody captured, ATP 1 uM
quantity-name: Kd (nM)
Numbers only, in nM.

Example binders with recorded Kd:
04H1637-G1m/04L1581-lam1 (antibody, human IgG1, lambda, V domains shown) VH: QVQLVESGGGLVKPGGSLRLSCAASGFTFSSKTMNWVRQAPGKGLEWVSSISTQSHYIYYAESVRGRFTISRDNAKNSLYLQMNSLRAEDTAVYYCARYGKREDMLWVFDYWGQGTLVTVSS VL: QSALTQPPSASGSPGQSVTISCQGPSTGVGDYTWVHWYQQHPGKAPKLMIYFTIKKPKGVPDRFSGSKSGNTASLTVSGLQAEDEADYYCQTYAAPLGPMFGGGTKLTVLG = 89
04H1654-G1m/04L1606-lam1 (antibody, human IgG1, lambda, V domains shown) VH: QVQLVESGGGVVQPGGSLRLSCAASGFTFSSKTMNWVRQAPGKGLEWVSSISTQSHYIYYARSVRGRFTISRDNAKNSLYLQMNSLRAEDTAVYYCARYGKREDMLWVFDYWGQGTLVTVSS VL: QSALTQPPSASGSPGQSVTISCQGPSTGVGDYNWVHWYQQHPGKAPKLMIYFTSKKPSGVPDRFSGSKSGNTASLTVSGLQAEDEADYYCQTYAAPLGPMFGGGTKLTVLG = 140
04H1389-G1m/04L1086-lam1 (antibody, human IgG1, lambda, V domains shown) VH: EVQLVESGGGLVKPGGSLRLSCAASGFTFSSKTMNWVRQAPGKGLEWVSSISTQSHYIYYAESVKGRFTISRDNAKNSLYLQMNSLRAEDTAVYYCARYGKREDMLWVFDYWGQGTLVTVSS VL: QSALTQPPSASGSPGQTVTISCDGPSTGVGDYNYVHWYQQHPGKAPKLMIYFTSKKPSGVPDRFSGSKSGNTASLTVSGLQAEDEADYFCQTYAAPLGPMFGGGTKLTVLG = 180
04H1637-G1m/04L1594-lam1 (antibody, human IgG1, lambda, V domains shown) VH: QVQLVESGGGLVKPGGSLRLSCAASGFTFSSKTMNWVRQAPGKGLEWVSSISTQSHYIYYAESVRGRFTISRDNAKNSLYLQMNSLRAEDTAVYYCARYGKREDMLWVFDYWGQGTLVTVSS VL: QSALTQPPSASGSPGQSVTISCQGPSTGVGDYNWVHWYQQHPGKAPKLMIYFTSKKPKGVPDRFSGSKSGNTASLTVSGLQAEDEADYYCQTYAAPLGPMFGGGTKLTVLG = 140

Please find the next binder below.
Fill in the blank: the reported Kd of 04H1656-G1m/04L1606-lam1 (antibody, human IgG1, lambda, V domains shown) VH: QVQLVESGGGVVQPGGSLRLSCAASGFTFSSKTMNWVRQAPGKGLEWVSSISTQSHYIYYAESVRGRFTISRDNAKNSLYLQMNSLRAEDTAVYYCARYGAREDMLWVFDYWGQGTLVTVSS VL: QSALTQPPSASGSPGQSVTISCQGPSTGVGDYNWVHWYQQHPGKAPKLMIYFTSKKPSGVPDRFSGSKSGNTASLTVSGLQAEDEADYYCQTYAAPLGPMFGGGTKLTVLG is ____.
95
